Test system: Escherichia coli TOP10
Assay: shrunken log2 fold change of peptide-encoding DNA abundance (4.5 h post-induction vs induction); higher = less antimicrobial activity (less host growth inhibition)
Conditions: time post-induction: 4.5 h; library: site-saturation at positions 5, 18, 19, 20
REPORTED ENDPOINT: shrunken log2 fold change

SEQUENCE	REPORTED VALUE
RRIRERPPRLPRPRPRPNPLPRP	-0.0696
RRIRNRPPRLPRPRPRPLAGPRP	0.148
RRIRKRPPRLPRPRPRPKHNPRP	0.0641
RRIRLRPPRLPRPRPRPFDHPRP	-0.0264
RRIRYRPPRLPRPRPRPHIGPRP	0.0489
RRIRTRPPRLPRPRPRPPCPPRP	0.15
RRIRQRPPRLPRPRPRPVNDPRP	-0.0199
RRIRFRPPRLPRPRPRPRNQPRP	-0.114
RRIRSRPPRLPRPRPRPWSPPRP	-0.1
RRIRMRPPRLPRPRPRPLPYPRP	0.0635

# shrunken log2 fold change of `RRIRERPPRLPRPRPRPFRSPRP` = -0.0241

shrunken log2 fold change for `RRIRYRPPRLPRPRPRPHDDPRP` is 0.0514

# sequence `RRIRVRPPRLPRPRPRPAWRPRP` ; its shrunken log2 fold change = 0.712

sequence `RRIRQRPPRLPRPRPRPHHQPRP` , shrunken log2 fold change observed: 0.18

Measured shrunken log2 fold change, `RRIRMRPPRLPRPRPRPKEKPRP` : 0.0504

---

Tested on: Escherichia coli TOP10;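 note: peptides expressed intracellularly from a pBAD plasmid library in pooled LB shake-flask culture, induced with 0.3% L-arabinose, DNA abundance read by NGS, three biological replicates, DESeq2 with apeglm shrinkage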
Test: shrunken log2 fold change of peptide-encoding DNA abundance (4.5 h post-induction vs induction); higher = less antimicrobial activity (less host growth inhibition)
Settings: time post-induction: 4.5 h; library: site-saturation at positions 5, 18, 19, 20
REPORTED ENDPOINT: shrunken log2 fold change
// return a plain number; no unit text

SEQUENCE	REPORTED ENDPOINT	REPORTED VALUE
RRIRHRPPRLPRPRPRPPMPPRP	shrunken log2 fold change	0.108
RRIRHRPPRLPRPRPRPKRHPRP	shrunken log2 fold change	0.0834
RRIRCRPPRLPRPRPRPYMNPRP	shrunken log2 fold change	-0.99
RRIRARPPRLPRPRPRPFHAPRP	shrunken log2 fold change	-0.0904
RRIRIRPPRLPRPRPRPYYGPRP	shrunken log2 fold change	-2.94
RRIRHRPPRLPRPRPRPTNLPRP	shrunken log2 fold change	-0.288
RRIRVRPPRLPRPRPRPRMYPRP	shrunken log2 fold change	-0.882
RRIRRRPPRLPRPRPRPGPNPRP	shrunken log2 fold change	0.251
RRIRCRPPRLPRPRPRPFDHPRP	shrunken log2 fold change	0.0529
RRIRWRPPRLPRPRPRPHSRPRP	shrunken log2 fold change	0.194

Entry under test: `RRIRFRPPRLPRPRPRPYDSPRP` . Its shrunken log2 fold change was -0.924

For reference, reported shrunken log2 fold change for `RRIRTRPPRLPRPRPRPRAHPRP` stands at -0.186

Entry `RRIRNRPPRLPRPRPRPLHIPRP` — recorded shrunken log2 fold change = -0.363

Kindly note the recorded shrunken log2 fold change for `RRIRDRPPRLPRPRPRPAKYPRP` , which is -0.315

Reported shrunken log2 fold change ( `RRIRRRPPRLPRPRPRPICGPRP` ) = -0.0231

These data points were gathered from the supplement of paper PMC9112550.
